# run_description: physchem
# experimental_conditions: pH 6.1, Solubility Conc., pH 6.1; vehicle 10 mM phosphate
# Description: From a stock solution in vehicle, either H2O or 10 mM phosphate, containing 1 mg (as weighed) compound per ml, 8-11 aliquots are withdrawn and pH-adjusted individually with HCl/NaOH, to cover the whole pH range.
Positions of bridges follow the written chain, without caps; N, C: chain ends. Non-standard residues stand in square brackets, D forms with d. Residues, ends and D or L forms follow the SMILES beside them. *: point of attachment. Lys(CH2CO2H)2 = N[C@@H](CCCCN(CC(=O)O)CC(=O)O)C(=O)O; X1 = O=C(O)CCCCCCCCCCCCCCCCC(=O)NCCOCCOCCN*; Dab = NCC[C@H](N)C(=O)O
parameter: solubility
Please don't drop the unit; write it after the number.

Supply measured solubility of CC(=O)N[C@H]1CCNC(=O)C[C@@H](C(=O)N2CCC[C@H]2C(=O)N[C@@H](CO)C(=O)N[C@@H](CO)C(=O)N[C@@H](CO)C(=O)N[C@@H](CCCCN(CC(=O)O)CC(=O)O)C(=O)N[C@@H](CO)C(=O)N[C@@H](CO)C(=O)NCCOCCOCCNC(=O)CCCCCCCCCCCCCCCCC(=O)O)NC(=O)[C@H](Cc2c[nH]c3ccccc23)NC(=O)[C@H](CCCNC(=N)N)NC(=O)[C@@H](Cc2ccccc2)NC(=O)[C@H](Cc2c[nH]cn2)NC1=O [Example 3] (Ac-[Dab]H[dF]RWDPSSS[Lys(CH2CO2H)2]SS-X1; lactam 1-6) in your reply.
54 µM

* * *

# run_description: physchem
# experimental_conditions: pH 7.5, Solubility Conc.
Positions of bridges follow the written chain, without caps; N, C: chain ends. Non-standard residues stand in square brackets, D forms with d. Residues, ends and D or L forms follow the SMILES beside them. Groups on a side chain read outwards from the residue. *: point of attachment. Lys(CH2CO2H)2 = N[C@@H](CCCCN(CC(=O)O)CC(=O)O)C(=O)O; C16 diacid = O=C(O)CCCCCCCCCCCCCCC(=O)*; hCys = N[C@@H](CCS)C(=O)O; Orn = NCCC[C@H](N)C(=O)O; AEEA = NCCOCCOCC(=O)O
parameter: solubility (µM)
Answer format: numeric, µM implied, no suffix.

// below: answered compounds
compound="CC(=O)N[C@H]1CSSC[C@@H](C(=O)N2CCC[C@H]2C(=O)N2CCC[C@H]2C(=O)N[C@@H](CCCCN)C(=O)N[C@@H](CCC(=O)O)C(=O)N[C@@H](CCC(=O)O)C(=O)N[C@@H](CCCCNC(=O)COCCOCCNC(=O)CCCCCCCCCCCCCCC(=O)O)C(N)=O)NC(=O)CNC(=O)[C@H](Cc2c[nH]c3ccccc23)NC(=O)[C@H](CCCNC(=N)N)NC(=O)[C@@H](Cc2ccccc2)NC(=O)[C@H](Cc2c[nH]cn2)NC(=O)[C@H](CCC(=O)O)NC1=O [Example 68] (Ac-CEH[dF]RWGCPPKEEK([AEEA-C16 diacid])-NH2; disulfide 1-8)" parameter=solubility value_units=µM recorded_value=184
compound="CC(=O)N[C@H]1CCCNC(=O)C[C@@H](C(=O)N2CCC[C@H]2C(=O)N2CCC[C@H]2C(=O)N[C@@H](CCCNC(=N)N)C(=O)N[C@@H](CCC(=O)O)C(=O)N[C@@H](CCCCN(CC(=O)O)CC(=O)O)C(=O)N[C@@H](CCCCNC(=O)COCCOCCNC(=O)CCCCCCCCCCCCCCC(=O)O)C(N)=O)NC(=O)[C@H](Cc2c[nH]c3ccccc23)NC(=O)[C@H](CCCNC(=N)N)NC(=O)[C@@H](Cc2ccccc2)NC(=O)[C@H](Cc2c[nH]cn2)NC1=O [Example 42] (Ac-[Orn]H[dF]RWDPPRE[Lys(CH2CO2H)2]K([AEEA-C16 diacid])-NH2; lactam 1-6)" parameter=solubility value_units=µM recorded_value=441

Supply measured solubility of CC(=O)N[C@H]1CCSSC[C@@H](C(=O)N2CCC[C@H]2C(=O)N2CCC[C@H]2C(=O)N[C@@H](CO)C(=O)N[C@@H](CCC(=O)O)C(=O)N[C@@H](CCCCN(CC(=O)O)CC(=O)O)C(=O)N[C@@H](CCCCNC(=O)COCCOCCNC(=O)CCCCCCCCCCCCCCC(=O)O)C(N)=O)NC(=O)[C@H](Cc2c[nH]c3ccccc23)NC(=O)[C@H](CCCNC(=N)N)NC(=O)[C@@H](Cc2ccccc2)NC(=O)[C@H](Cc2c[nH]cn2)NC1=O [Example 70] (Ac-[hCys]H[dF]RWCPPSE[Lys(CH2CO2H)2]K([AEEA-C16 diacid])-NH2; disulfide 1-6) in your reply.
444
